Molecular target: KRAS G12C-BRAF complex (Homo sapiens (Human), UniProt P01116+P62937, G12C)
Sequence (P01116-2 other isoform, or with tags, fused parts or gaps G12C): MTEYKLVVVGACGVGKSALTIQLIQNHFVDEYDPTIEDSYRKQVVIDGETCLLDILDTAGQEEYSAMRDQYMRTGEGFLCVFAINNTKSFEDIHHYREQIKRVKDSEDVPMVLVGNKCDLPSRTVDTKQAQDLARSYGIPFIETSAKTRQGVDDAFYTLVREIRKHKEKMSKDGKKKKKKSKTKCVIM
Sequence (P62937 whole entry): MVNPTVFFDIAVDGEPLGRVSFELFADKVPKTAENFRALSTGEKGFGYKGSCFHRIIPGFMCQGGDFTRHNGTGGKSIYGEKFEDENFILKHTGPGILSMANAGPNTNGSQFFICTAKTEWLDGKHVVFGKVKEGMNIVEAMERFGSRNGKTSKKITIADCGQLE
Assay: KRAS-BRAF with CYPA (500 nM) interaction assay (TR-FRET), G12C
This section presents compounds with their documented IC50 values.
Reply with just the number (in nM).

CCn1c(-c2cc(N3CCOCC3)cnc2[C@H](C)OC)c2c3cc(c(F)cc31)-c1csc(n1)C[C@H](NC(=O)[C@H](C(C)C)N(C)C(=O)N1CC(F)(F)C1)C(=O)N1CCC[C@H](N1)C(=O)OCC(C)(C)C2 (atropisomer, axis not shown; (M))	95

Task: Please give the measured IC50 for this compound: CO[C@@H](C)c1ncc(N2CCN(CC(F)(F)F)CC2)cc1-c1c2c3c(F)c(ccc3n1CC(F)(F)F)-c1csc(n1)C[C@H](NC(=O)[C@H](C(C)C)N(C)C(=O)N1CCOCC1)C(=O)N1CCC[C@H](N1)C(=O)OCC(C)(C)C2 (atropisomer, axis not shown; (M))
Output: 2
